Data credit: PubChem BioAssay (NCI)

System: SK-OV-3 ovarian
Assay: NCI tumour cell line growth inhibition, 48 h
The label depends only on TGI: YES if it is at least 20 µM, NO if it is smaller.

Reference set (2 entries):
MOLECULE	CLASS_LABEL
CN(C)CCn1c(=O)c2ccc(NCCNCCO)c3c(=O)c4ccccc4n(c1=O)c23	NO
COc1ccc(N2C(=O)C3c4[nH]c5ccc(C)cc5c4C4CCC(C(C)(C)C)CC4C3C2=O)cc1 (stereo not given)	YES

Alright, here's another molecule for you.
Incoming: Quick check: does "CC(=O)OC[C@]12CC[C@H]3[C@@H](C[C@H]4O[C@]45[C@@H](O)C=CC(=O)[C@]35C)[C@@H]1CC[C@@H]2[C@H](C)[C@H]1CC(C)=C(C)C(=O)O1" have TGI greater than or equal to 20 µM?
Outgoing: NO

###

Test system: HCT-15 colon
Test: NCI tumour cell line growth inhibition, 48 h; in the data active means GI50 below about 0.43 µM; inactive means the rest
# output must be one of T = active, F = inactive

Worked cases, answers included:
MOLECULE	CLASS_LABEL
O=C(Nc1ccc(Cl)cc1)c1cc(-c2ccc(F)cc2)c2sc(=O)[nH]c2n1	F
CC(=O)OC1CC(O)C23COC(O)C1(C)C2CC(O)C1(C)C3C(=O)C(O)C2(C)C(c3ccoc3)CC3OC321 (stereo not drawn)	F

# next molecule below
Incoming: Please state the recorded outcome for this molecule: "CCN(CC)c1ccc(C(=N)c2ccc(N(CC)CC)cc2)cc1"
Outgoing: T

###

System: OVCAR-4 ovarian
Assay: NCI tumour cell line growth inhibition, 48 h
Catalogue of molecules with associated TGI

As a guide, the following entries are already answered.
MOLECULE	TGI
O=C(O)c1cccc(Nc2c(C(=O)O)cccc2[N+](=O)[O-])c1	> 100 µM
O=C(CSc1ncccn1)N/N=C/c1ccccc1OCc1ccccc1	> 100 µM
NCC(Cl)C(O)c1cnc(N)[nH]1 (centres undefined)	10.2 µM
CCN(CC)c1sc(N(CC)CC)c2c1SSSSS2	2.46 µM
O=C(CP(=O)(c1ccccc1)c1ccccc1)c1cccc(C(=O)CP(=O)(c2ccccc2)c2ccccc2)c1	> 100 µM

Memo: "Cc1c2c(cc3c1C(=O)C(=O)C([C@@H](C)CO)=C3O)C(C)(C)CCC2" , reported TGI: > 100 µM

The measured TGI associated with COc1ccc(N2C(=O)C3c4[nH]c5ccc(C)cc5c4C4CCC(C(C)(C)C)CC4C3C2=O)cc1 (centres undefined) reads 10.8 µM

NC(CSS(=O)(=O)O)=NC1CC2CCC1C2 (centres undefined) yielded TGI of > 100 µM

So for COc1ccc(C(C)c2cc3c(cc2OC)OCO3)cc1 (centres undefined) , the logged TGI turned out to be > 100 µM

###

Test system: SNB-78 CNS
Test: NCI tumour cell line growth inhibition, 48 h
READOUT_KIND: TGI

The examples below pair each entry with its known result.
COMPOUND	MEASURED_ON	TGI
NC1=NN(c2ccccc2)C(=O)C1C(=O)CCC(=O)Nc1cccc(C(F)(F)F)c1 (stereo not drawn)	SNB-78 CNS	> 100 µM
CN/N=C(/CCN1CCCC1)CC(c1ccccc1)c1c(O)c2ccccc2oc1=O (stereo not drawn)	SNB-78 CNS	> 100 µM
N.N.N.N.N.O=C([O-])c1nn[n-]n1.[Cl-].[Co+3]	SNB-78 CNS	> 100 µM
N=C1C(=N)c2ccccc2-c2ccccc21.[Cl-].[Ru+2].c1cnc2c(c1)ccc1cccnc12.c1cnc2c(c1)ccc1cccnc12	SNB-78 CNS	> 100 µM
CC(=O)OC1C=C(C=O)C(O)(C=O)C2(C)CCCC(C)(C)C12 (stereo not drawn)	SNB-78 CNS	5.44 µM
COc1ccc2c(c1)CCC1C3(CCCC21C)OCCO3 (stereo not drawn)	SNB-78 CNS	73.9 µM
CCC[CH2][Sn]1([CH2]CCC)[O]C(=O)C(C(C)C)N=Cc2ccccc2[O]1 (stereo not drawn)	SNB-78 CNS	1.23 µM
CC1(n2nc(-c3ccccc3)n(-c3ccccc3)c2=O)CSC1	SNB-78 CNS	> 100 µM
CN(C)P(=O)(/C(N)=N/Nc1ccc([N+](=O)[O-])cc1)N(C)C	SNB-78 CNS	> 100 µM
CC(C)(C)OC(=O)Cc1ccc2c(ccn2Cc2ccccc2)c1	SNB-78 CNS	> 100 µM

The measured TGI that "CC(=O)OC[C@]12CC[C@H]3[C@@H](C[C@H]4O[C@]45[C@@H](O)C=CC(=O)[C@]35C)[C@@H]1CC[C@@H]2[C@H](C)[C@H]1CC(C)=C(C)C(=O)O1" showed for SNB-78 CNS is 1.84 µM

// assay SNB-78 CNS, entry "Cc1noc(C)c1CCCOC1COc2ccccc2OCCOCCOc2ccccc2OC1" , TGI value = > 100 µM

Entry Cc1[nH]c(=O)[nH]c(=O)c1/C=C/C(=O)NC(CO)CC(C)C (stereo not drawn) ; assay system SNB-78 CNS; TGI recorded at > 375 µM
